# measuredTarget: Cyclin-dependent kinase 14/Cyclin-Y (Homo sapiens, UniProt O94921)
# Sequence (O94921 whole entry): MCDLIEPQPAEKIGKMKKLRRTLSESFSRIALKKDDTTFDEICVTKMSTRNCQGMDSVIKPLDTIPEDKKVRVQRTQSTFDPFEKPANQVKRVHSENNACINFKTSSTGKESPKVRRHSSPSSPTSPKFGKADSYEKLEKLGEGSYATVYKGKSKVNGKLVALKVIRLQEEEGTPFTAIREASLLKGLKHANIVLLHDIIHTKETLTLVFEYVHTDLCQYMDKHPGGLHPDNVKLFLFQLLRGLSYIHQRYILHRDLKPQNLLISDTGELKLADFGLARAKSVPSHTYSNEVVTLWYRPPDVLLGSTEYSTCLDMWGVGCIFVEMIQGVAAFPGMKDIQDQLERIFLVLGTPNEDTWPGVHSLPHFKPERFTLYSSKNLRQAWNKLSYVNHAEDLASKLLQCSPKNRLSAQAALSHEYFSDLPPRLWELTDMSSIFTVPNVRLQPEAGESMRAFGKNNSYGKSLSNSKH
# Sequence (Q8ND76 whole entry, further chain): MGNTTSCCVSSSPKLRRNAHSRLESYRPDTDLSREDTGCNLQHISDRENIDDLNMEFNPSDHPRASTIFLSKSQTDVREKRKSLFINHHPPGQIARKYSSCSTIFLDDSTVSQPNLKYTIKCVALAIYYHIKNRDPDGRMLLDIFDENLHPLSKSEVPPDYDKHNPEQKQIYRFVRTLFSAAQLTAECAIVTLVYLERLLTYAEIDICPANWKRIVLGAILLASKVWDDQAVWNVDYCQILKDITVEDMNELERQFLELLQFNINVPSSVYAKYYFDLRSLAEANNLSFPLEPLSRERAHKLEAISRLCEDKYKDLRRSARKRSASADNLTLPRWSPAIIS
# procedureText: Inhibition of recombinant GST-tagged human full length CDK14/cyclin Y (2 to end residues) preincubated for 30 mins by Lantha screen eu binding assay
pIC50: −log10 of the molar value.
Let's look at some compounds and their measured pIC50.
measurementKind: pIC50

| structureAsSmiles | measuredTarget | measurementKind | operatorSymbol | endpointResult |
| --- | --- | --- | --- | --- |
| CN(C)C/C=C/C(=O)Nc1cccc(S(=O)(=O)N2CCC(NC(=O)c3n[nH]cc3NC(=O)c3ccccc3)CC2)c1 | Cyclin-dependent kinase 14/Cyclin-Y (Homo sapiens, UniProt O94921) | pIC50 | = | 8.52 |
| Cc1cc(NC(=O)c2cccc(NC(=O)/C=C/CN(C)C)c2)ccc1NC(=O)c1n[nH]cc1NC(=O)c1c(Cl)cccc1Cl | Cyclin-dependent kinase 14/Cyclin-Y (Homo sapiens, UniProt O94921) | pIC50 | < | 6.00 |
| C=CC(=O)Nc1cccc(C(=O)Nc2ccc(NC(=O)c3n[nH]cc3NC(=O)c3c(Cl)cccc3Cl)c(C)c2)c1 | Cyclin-dependent kinase 14/Cyclin-Y (Homo sapiens, UniProt O94921) | pIC50 | < | 6.00 |
| CN(C)CC/C=C/C(=O)Nc1ccc(S(=O)(=O)N2CC[C@@H](NC(=O)c3n[nH]cc3NC(=O)c3c(Cl)cccc3Cl)C2)cc1 | Cyclin-dependent kinase 14/Cyclin-Y (Homo sapiens, UniProt O94921) | pIC50 | = | 7.39 |
| C=CC(=O)Nc1cccc(C(=O)N2CCC(NC(=O)c3n[nH]cc3NC(=O)c3c(Cl)cccc3Cl)CC2)c1 | Cyclin-dependent kinase 14/Cyclin-Y (Homo sapiens, UniProt O94921) | pIC50 | = | 7.35 |
